I'd be grateful if you could share measured Activity for these entries.
Target: Casein kinase I isoform gamma-2 (Homo sapiens) (UniProt P78368)
Sequence (P78368 whole entry, looked up, canonical isoform): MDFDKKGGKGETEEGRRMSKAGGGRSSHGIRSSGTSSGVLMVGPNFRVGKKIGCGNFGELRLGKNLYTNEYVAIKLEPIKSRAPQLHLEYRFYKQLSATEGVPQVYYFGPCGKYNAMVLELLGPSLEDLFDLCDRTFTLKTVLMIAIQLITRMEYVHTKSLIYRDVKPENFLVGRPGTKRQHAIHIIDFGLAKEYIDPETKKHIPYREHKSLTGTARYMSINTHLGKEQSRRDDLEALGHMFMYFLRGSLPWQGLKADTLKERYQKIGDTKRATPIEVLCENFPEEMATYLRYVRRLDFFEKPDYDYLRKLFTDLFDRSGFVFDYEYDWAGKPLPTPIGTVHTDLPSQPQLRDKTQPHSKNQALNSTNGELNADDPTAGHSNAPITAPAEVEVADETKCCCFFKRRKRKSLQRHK
Experiment: Inhibition of human Casein kinase 1 gamma 2 assessed as residual activity at 10 uM relative to control
Please reply with the bare figure in % and do not write the unit itself.

(Q) Find the recorded Activity belonging to CCCCCCCCCCCCCCC[C@@H](O)[C@H](C)N and report it.
(A) 100

(Q) Would you mind telling me what Activity value was observed for CCCCCCCCCCCCCCC[C@@H](O)[C@@H](N)CC(C)C ?
(A) 94

(Q) Record request: Activity value, item CCCCCCCCCCCCCCC[C@@H](O)[C@@H](N)[C@@H](C)O
(A) 87

(Q) I have this compound here, CCCCCCCCC[C@@H](O)[C@@H](N)Cc1ccccc1 , and I need its recorded Activity.
(A) 96

====

Target: Casein kinase I isoform gamma-3 (Homo sapiens)
Assay: Inhibition of human Casein kinase 1 gamma 3 assessed as residual activity at 10 uM relative to control
Please respond with reported Activity for every item in the list.
Report only the number, with the unit % understood.

(Q) Bench note: what Activity did CCCCCCCCCCCCCCC[C@@H](O)[C@@H](N)[C@@H](C)O show?
(A) 82

(Q) Any idea what Activity was measured for CCCCCCCCCCCCCCC[C@@H](O)[C@@H](N)CC(C)C ?
(A) 93

(Q) Look at this molecule and give its reported Activity. CCCCCCCCC[C@@H](O)[C@@H](N)Cc1ccccc1
(A) 71

(Q) For the molecule shown here, CCCCCCCCCCCCCCC[C@@H](O)[C@H](C)N , give the reported Activity.
(A) 100

====

System: SW1573
Assay: Antiproliferative activity against human SW1573 cells after 48 hrs incubation by SRB assay
Type: functional
Conditions: SW1573, 48 h
Exercise: state measured GI50 for each of the compounds provided.
State just the number; it will be interpreted in µM.

(Q) Return reported GI50; argument: CCCCCCCCCCCCCCC[C@@H](O)[C@@H](N)CO [DIHYDROSPINGOSINE]
(A) 4.5

(Q) Reported GI50 for CCCCCCCCC[C@@H](O)[C@@H](N)C(C)C : what is it?
(A) 17

(Q) Report GI50 for CCCCCCCCC[C@@H](O)[C@@H](N)CC(C)C please.
(A) 14

(Q) # lookup: GI50 of CCCCCCCCC[C@@H](O)[C@@H](N)C(C)CC (single isomer, unassigned)
(A) 13

(Q) Value lookup for GI50; key = CCCCCCCCCCCCCCC[C@@H](O)[C@@H](N)[C@@H](C)O
(A) 17

(Q) Entry CCCCCCCCC[C@@H](O)[C@@H](N)[C@@H](C)O has what GI50?
(A) 17

(Q) GET /values?readout=GI50&item= CCCCCCCCC[C@@H](O)[C@@H](N)Cc1ccc(O)cc1
(A) 18

(Q) Returns the measured GI50 for the input compound. Input: CCCCCCCCCCCCCCC[C@@H](O)[C@@H](N)C(C)CC (single isomer, unassigned)
(A) 3.4

(Q) // GI50 lookup, key: CCCCCCCCCCCCCCC[C@@H](O)[C@@H](N)Cc1ccccc1
(A) 2.1

(Q) Recorded GI50 of CCCCCCCCC[C@@H](O)[C@H](C)N , please.
(A) 9.5

(Q) Data request, read-out GI50, for CCCCCCCCC[C@@H](O)[C@@H](N)Cc1ccccc1
(A) 16
